This collection of values is drawn from ChEMBL document CHEMBL4296182.

- Test system: Escherichia coli
- measurement_notes: Antibacterial activity against Escherichia coli ATCC 25922 (CO-ADD:GN_001); MIC in CAMBH media using NBS plates, by Resazurin F(560/590)
- Type: functional
- stated_conditions: Concentration 20 uM, ASSAY_TEST Inhibition of Bacterial Growth, detection method Resazurin, Fluorescence (ex560/em590), MEDIA CAMHB, plate type 384well, CORNING #3640, time 18 hr
Assignment: determine reported Inhibition for the given compounds.
Write the value in % as a bare number.

# Inhibition (compound: `NC(=O)c1ccccc1NC(=O)c1ccccc1Cl` ) is 7.56

Just so you know, measured Inhibition for `O=C1CSC(=S)N1/N=C/c1c[nH]c2ccc(Br)cc12` came out at 4.81

The reported Inhibition of the compound `Oc1nc2ccccc2n1C1=CCNCC1` was 0.33

// sample `COc1c(/C=N/NC(N)=O)c(OC)c(OC)c2c1CCO2` , its Inhibition was -9.64

# Inhibition (compound: `C#CC1(N2CCCCC2)CCCCC1` ) is 12.63

Input `Oc1cccc2cnccc12` . Output Inhibition: 3.71

The value of Inhibition measured for the compound Cc1cccc(N2CCN(CC(O)COc3ccccc3Cl)CC2)c1 (configuration not stated) turned out to be 7.94

For record `c1ccc2c(c1)[nH]c1c3ccccc3sc21` the listed Inhibition is 0.28

Looking up `C[C@H](CCC(=O)O)[C@H]1CC[C@@]2(C)[C@@H]3C(=O)C[C@H]4C(C)(C)[C@@H](O)CC[C@]4(C)[C@H]3C(=O)C[C@]12C` , I see its Inhibition listed as -3.17

Sample `Cc1ccc(NC(=O)Nc2nc3ccccc3s2)cc1NC(=O)Nc1nc2ccccc2s1` ; Inhibition observed: 17.87

// sample `O=C(Cn1ccc(=O)[nH]c1=O)Nc1ccc(C(=O)O)c(O)c1` , its Inhibition was 10.79

`C(=N\N=c1/nnn(Cc2ccccc2)[nH]1)/c1ccccc1` yielded Inhibition of 3.73

Quick note, Inhibition for `COC(=O)Nc1csc2c1NC(=O)CCCC2` landed at 10.25

What the record says about `CSc1c(N(C)C)c(=O)c1=S` : Inhibition is 11.42

Reported Inhibition for `COCCn1c2nc(=O)n(-c3ccccc3)c(=O)c-2nc2ccccc21` was 6.79

// `CC(C)COc1nc2c(c(=O)n(C)c(=O)n2C)n1C` : Inhibition value = 12.8

Lookup result for `Cc1ccc(-c2cssc2=S)cc1` ; measured Inhibition: -20.59

GET /value?item= `S=C(SCc1cc(Cl)cc2c1OCOC2)N1CCSCC1` &field=Inhibition returns 10.68

// field: Inhibition; key: `O=[N+]([O-])c1ccc2[nH]c3nc4ccccc4nc3c2c1` ; value = -1.33

Please fill in: Inhibition reported for `N#Cc1cc(-c2ccccc2)[nH]c1-c1nccc2ccccc12` = 7.81

Reported Inhibition for `O=C(O)/C=C\C(=O)Nc1ccc(-c2ccccc2)cc1` was -6.62

Given item `CCOC(=O)Cc1csc2nc(-c3ccccc3)nn12` , the value recorded as its Inhibition is 5.98

Noted for `COC(=O)c1cc2c(n1S(=O)(=O)c1ccc(C)cc1)C(=O)C(=O)c1[nH]cc(C(=O)OCc3ccccc3)c1-2` : its Inhibition reads 4.92

Reported Inhibition for O=c1n(CC2CO2)c(=O)n(CC2CO2)c(=O)n1CC1CO1 (configuration not stated) [TEROXIRONE] was 4.44

The value of Inhibition measured for the compound `Cc1ccc2c(c1)C(=C(C#N)C#N)CCN2` turned out to be 3.17

Please fill in: Inhibition reported for `Cc1ccc(Nc2c(O)ncnc2O)cc1C` = -16.23

The recorded Inhibition for entry `CC(C)(C)c1ccc(NS(=O)(=O)c2ccc(N)cc2)cc1` equals -6.26

The recorded Inhibition for `CSc1cccc(NC(=O)Nc2nc3c(C)cccc3s2)c1` is 8.83

// Inhibition lookup, compound = `O=[N+]([O-])c1cccc(/C=C/c2ccccn2)c1` , result: 10.58

For reference, reported Inhibition for Cc1cn(C2CC(O)C(CO)O2)c(=O)n(Cc2ccccc2)c1=O (configuration not stated) stands at 7.7

Notebook: `Oc1cc(-n2cccn2)c(O)cc1-n1cccn1` , Inhibition read as -3.84

For reference, reported Inhibition for COC(=O)CC1OCC=C2CN3CCC45C6=CC(=O)C(=O)C([N+](=O)[O-])=C6NC4C1C2CC35 (configuration not stated) stands at 11.73

Reported Inhibition ( COc1cccc(OCC(O)CN2CCN(c3ccccc3)CC2)c1 (configuration not stated) ) = -4.05

The value of Inhibition measured for the compound `Cn1c(N)c(/N=N/c2ccc(S(N)(=O)=O)cc2)c(=O)n(C)c1=O` turned out to be 15.26

# Inhibition (compound: `O=c1cc(-c2ccc(O)cc2)oc2c(O)c(O)c(O)c(O)c12` ) is 3.54

For record `c1ccc(-c2nc[nH]c2-c2ccccc2)cc1` the listed Inhibition is 11.94

Sure, the documented Inhibition for `O=C1NCN(CCO)CN1` is 8.55

Record `O=C1c2cccc(Sc3ccccc3)c2C(=O)c2c(Sc3ccccc3)cccc21` . Reported Inhibition: 22.23

The value of Inhibition measured for the compound `CCCCOc1nc2c(c(=O)n(C)c(=O)n2C)n1C` turned out to be 18.86

Record `S=C(Nc1ccccc1)c1ccccn1` . Reported Inhibition: 1.02

Inhibition in this record for `O=C(O)c1cc2cc(OCc3ccccc3)ccc2[nH]1` : 8.06

Just so you know, measured Inhibition for `Cc1nc2nc(C(F)(F)F)[nH]c2nc1C` came out at -5.58

* * *

Kindly state Inhibition for each of the entries shown.
- System: Escherichia coli
- measurement_notes: Antibacterial activity against Escherichia coli ATCC 25922 (CO-ADD:GN_001); MIC in CAMBH media using NBS plates, by Resazurin F(560/590)
- Format: functional
- stated_conditions: Concentration 20 uM, ASSAY_TEST Inhibition of Bacterial Growth, detection method Resazurin, Fluorescence (ex560/em590), MEDIA CAMHB, plate type 384well, CORNING #3640, time 18 hr

Data point: `COc1ccc(C(=S)N2CCN(c3cccc(Cl)c3)CC2)cc1` ; Inhibition = 3.07%

Reported Inhibition of CCOC(=O)C1(C#N)C(=O)CS/C1=N/c1ccccc1Cl (stereo not drawn) : 0.68%

Noted for `CCN(CC)Cc1cc2[nH]c3c4ccc(Cl)cc4ncc3c2cc1OC` : its Inhibition reads -2.05%

Just so you know, measured Inhibition for `CN(C)c1ccc(/C=C/C(=O)c2cc(Cl)ccc2O)cc1` came out at 10.48%

Inhibition recorded for this compound, `CCCCSc1[nH]cnc2nncc1-2` , is 12.29%

Kindly note the recorded Inhibition for O=C1OC(CN(Cc2ccccc2)Cc2ccccc2)CN1/N=C/c1ccc([N+](=O)[O-])o1 (stereo not drawn) , which is 10.29%

Short answer for Nc1ccccc1SC1CC(=O)N(c2ccccc2Cl)C1=O (stereo not drawn) : Inhibition was -12.68%

Memo: `NC(=O)Oc1cccc(OC(N)=O)c1` , reported Inhibition: 4.31%

Value of measured Inhibition for the entry CN1N=C(N)c2cn(C3OC(COP(=O)(O)O)C(O)C3O)c3ncnc1c23 (stereo not drawn) : -1.62%

The recorded Inhibition for `COc1ccc(C(=S)N2CCN(c3ccccc3Cl)CC2)cc1OC` is 8.55%

The compound Cc1nc(NCc2ccccc2)c2cc[nH]c2n1 [ROLODINE] showed Inhibition equal to 4.8%

Measured Inhibition, `O=C(CSc1nc2ccc([N+](=O)[O-])cc2s1)c1ccc2ccccc2c1` : 5.26%

For this compound ( `Cc1cccnc1N=C(S)Nc1ncccc1C` ), measured Inhibition is 9.06%

Reported Inhibition of `CCCCOc1ccc(Nc2cc(Cl)ccc2C(=O)O)cn1` : 4.02%

Data point: CC1(CN2CCCC2)CCC(NC(=O)C(c2ccccc2)c2ccccc2)C(C)(C)O1 (stereo not drawn) ; Inhibition = 12.21%

Entry `Nc1cc(N)nc(CS)n1` , Inhibition reported as 6.53%

Consider CCOC(=O)C1C(=O)C(=O)N(C(C)C)C1C(=O)OCC (stereo not drawn) . Its measured Inhibition is -8.18%

Briefly, Inhibition measured for `OCc1nc2nc(Cl)c(Cl)[nH]c-2n1` : -8.33%

So, `O=C(/C=C/c1cccnc1)/C=C/c1cccnc1` ? Its Inhibition was 0.92%

# compound `CCOc1ccc(/C=C2\CCc3ccccc3C2=O)cc1` ; its Inhibition = -2.65%

# Inhibition of `CC(=O)Nc1nc(C)c(CCC2OCCO2)c(O)n1` = -15.79%

# Inhibition of `Cc1ccc(NC(=O)N2CCCCC2)cc1NC(=O)N1CCCCC1` = 3.01%

Memo: `CC(=O)c1cc(O)c2ccccc2c1O` , reported Inhibition: 0.42%

Entry `Nc1ccc(/N=N/c2ccccc2)c2ccccc12` — recorded Inhibition = 11.66%

Looking up `Cc1nc(Br)c(Br)c(C)c1Br` , I see its Inhibition listed as 7.33%

Input `FC(F)(F)c1nc2nc(Cl)c(Cl)nc2n1CCCN1CCOCC1` . Output Inhibition: -16.14%

// `O=C(COc1ccc([N+](=O)[O-])cc1Cl)N1CCOCC1` : Inhibition value = 6.72%

compound `CC1(C)CCSC(/C=C/c2ccccc2)=N1` , Inhibition observed: -1.41%

Record summary for `COc1ccc2c(=O)cc(-c3cccnc3)oc2c1OC` : reported Inhibition = 2.42%

Quick note, Inhibition for `Cc1ccc(NC(=S)NC(=O)c2ccccc2)cc1NC(=S)NC(=O)c1ccccc1` landed at 7.94%

The recorded Inhibition for entry CS(=O)(=O)O.OC(c1cc(C(F)(F)F)nc2c(Cl)cc(Cl)cc12)C1CCCCN1 (stereo not drawn) equals 19.86%

// recorded Inhibition for COc1c(O)ccc2c1CN1CCc3cc4c(cc3C1C2)OCO4 (stereo not drawn) : 3.09%

The compound c1ccc2c(c1)cnc1ccccc12 [PHENANTHRIDINE] showed Inhibition equal to 4.54%

Value of Inhibition reported for the compound `ON=C(NCc1ccccc1)c1ccccc1` is -18.65%

// Inhibition value for `Cc1cc(C)c(C#N)c(Sc2nc(C)c([N+](=O)[O-])c(C)c2C#N)n1` : 1.58%

Item: `Cn1c([N+](=O)[O-])cnc1N1CCN(c2nncs2)C1=O` | Inhibition: 2.52%

Recorded result, `NC(=O)c1cc2c3ccccc3ccn2c1-c1ccccc1` , Inhibition: 3.37%

Entry `O=C(c1ccccc1)c1ccc(-c2ccc(O)cc2)cc1` — recorded Inhibition = 8.24%

# compound `O=S1(=O)CSCS(=O)(=O)C1` ; its Inhibition = -18.14%

GET /value?item= CCCCC(=O)N1CCCC(C)C1 (stereo not drawn) &field=Inhibition returns 4.56%

Entry under test: `CC(C)(c1cc(Cl)c(O)c(CN2CCOCC2)c1)c1cc(Cl)c(O)c(CN2CCOCC2)c1` . Its Inhibition was 12.95%

In plain terms, `N#C/C(=C\c1c[nH]c2ccccc12)C(N)=O` has a documented Inhibition of 0.03%

Entry under test: `N#CNC(=N)c1ccccc1` . Its Inhibition was -14.26%
